Reported Plant response rating, Corn is given for each of the following molecules.
Tested on: corn (Zea mays)
Assay: Test C preemergence
Format: in vivo
Settings: 250 g ai/ha, scale 0 to 100, 0 no effect, 100 complete control
observable: Plant response rating, Corn

molecule="O=C1NCC(c2cc(F)cc(C(F)(F)F)c2)C1C(=O)Nc1cccc(F)c1F (centres unmarked) [Compound 488]" observable="Plant response rating, Corn" reported=85
molecule="CN1CC(c2cccc(OC(F)(F)C(F)F)c2)C(C(=O)Nc2ccc(F)c(F)c2F)C1=O (centres unmarked) [Compound 429]" observable="Plant response rating, Corn" reported=90
molecule="O=C1NCC(c2cccc(OC(F)(F)C(F)F)c2)C1C(=O)Nc1cccc(F)c1F (racemic) [Compound 697]" observable="Plant response rating, Corn" reported=75
molecule="O=C1NCC(c2cccc(OC(F)(F)C(F)F)c2)C1C(=O)Nc1ccc(F)c(F)c1F (racemic) [Compound 698]" observable="Plant response rating, Corn" reported=80
molecule="O=C1NCC(c2cccc(OC(F)F)c2)C1C(=O)Nc1ccc(F)cc1F (centres unmarked) [Compound 421]" observable="Plant response rating, Corn" reported=75
